Data origin: paper PMC10227015

Reported values of ΔTm (º) (TSA) for individual entries
system: dCK-C3S-S74E; test: Thermal shift assay (TSA); details: Figure 2a, mean
Sequence (P27707 whole entry S74E, form open): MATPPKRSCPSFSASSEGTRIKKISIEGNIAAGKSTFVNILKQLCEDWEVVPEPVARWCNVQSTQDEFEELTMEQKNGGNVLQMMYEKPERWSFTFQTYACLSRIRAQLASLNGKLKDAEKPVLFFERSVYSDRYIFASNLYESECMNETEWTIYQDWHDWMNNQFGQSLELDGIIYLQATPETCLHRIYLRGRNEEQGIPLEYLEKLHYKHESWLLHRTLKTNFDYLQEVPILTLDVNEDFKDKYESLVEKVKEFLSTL

CCCN(c1nc(-c2nc(N)cc(N)n2)cs1)c1cc(-c2ccc(S(=O)(=O)N(C)C)cc2)ccc1C	18.79 º
Cc1ccc(-c2ccc(S(=O)(=O)N3CCN(C)CC3)cc2)cc1Nc1nc(-c2nc(N)cc(N)n2)cs1	18.1 º
Cc1ccc(-n2cc(CNS(C)(=O)=O)nn2)cc1N(CC(C)C)c1nc(-c2nc(N)cc(N)n2)cs1	13.5 º
CCCN(c1nc(-c2nc(N)cc(N)n2)cs1)c1cc(-c2ccc3[nH]ccc3c2)ccc1C	16.85 º
CCCN(c1nc(-c2nc(N)cc(N)n2)cs1)c1cc(-c2ccc(S(N)(=O)=O)cc2)ccc1C	17.5 º

Query :: Give ΔTm (º) (TSA) (dCK-C3S-S74E) of the following compound: CCCN(c1nc(-c2nc(N)cc(N)n2)cs1)c1cc(-c2cccnc2)ccc1C
Result :: 15.71 º

Query :: Quick one: CCCN(c1nc(-c2nc(N)cc(N)n2)cs1)c1cc(-c2ccc(S(=O)(=O)N3CCN(C)CC3)cc2)cc(F)c1C
Result :: 17.25 º

Query :: Quick one: CCCN(c1nc(-c2nc(N)cc(N)n2)cs1)c1cc(-c2ccc(S(=O)(=O)NCCN)cc2)ccc1C
Result :: 20.83 º

Query :: Quick one: CCCN(c1nc(-c2nc(N)cc(N)n2)cs1)c1cc(-c2ccc(S(=O)(=O)N3CCN(CC)CC3)cc2)ccc1C
Result :: 20.22 º

Query :: Quick one: Cc1ccc(-c2ccc(OCCN3CCN(C)CC3)nc2)cc1N(CC(C)C)c1nc(-c2nc(N)cc(N)n2)cs1
Result :: 21.03 º

Query :: Quick one: CCCN(c1nc(-c2nc(N)cc(N)n2)cs1)c1cc(-c2ccc(S(=O)(=O)N3CCN(C)CC3)c(OC)c2)ccc1C
Result :: 20.4 º

Query :: Quick one: Cc1ccc(-c2ccc(CCN3CCN(C)CC3)cc2)cc1N(CCN)c1nc(-c2nc(N)cc(N)n2)cs1
Result :: 14.7 º

Query :: Quick one: CCCN(c1nc(-c2nc(N)cc(N)n2)cs1)c1cc(-c2ccc(S(=O)(=O)N3CCOCC3)cc2)ccc1C
Result :: 18.29 º

Query :: Quick one: CCCN(c1nc(-c2nc(N)cc(N)n2)cs1)c1cc(-c2ccc(S(=O)(=O)N3CCN(C)CC3)cc2F)ccc1C
Result :: 20.22 º

Query :: Quick one: CCCN(c1nc(-c2nc(N)cc(N)n2)cs1)c1cc(-c2cnc(S(=O)(=O)N3CCN(C)CC3)cc2C)ccc1C
Result :: 19.17 º

====

tested on: dCK-C3S-S74E; test: Enzymatic assay (PK/LDH coupled), dC phosphorylation by dCK in the presence of UTP; format: biochemical, human; settings: presence of UTP
Measure: ENZYMATIC ASSAY (Activation/Inhibition)

Some solved cases for reference:
CCCN(c1nc(-c2nccc(N)n2)cs1)c1cc(NC(=O)c2ccc(CN3CCN(C)CC3)cc2)ccc1C	I
Cc1ccc(-c2ccc(CCN3CCN(C)CC3)cc2)cc1Nc1nc(-c2nccc(N)n2)cs1	A/I
Cc1ccc(NC(=O)c2ccc(CN3CCN(C)CC3)s2)cc1Nc1nc(-c2nccc(N)n2)cs1	A/I
Cc1ccc(-c2ccc(CCN3CCN(C)CC3)cc2)cc1N(CCCN)c1nc(-c2nc(N)cc(N)n2)cs1	A/I
CCCN(c1nc(-c2nc(N)cc(N)n2)cs1)c1cc(-c2ccc(C(=O)N3CCN(C)CC3)nc2)ccc1C	I
COc1cc(-c2ccc(C)c(Nc3nc(-c4nccc(N)n4)cs3)c2)ccc1O	A/I
Cc1ccc(C#Cc2ccc(CN(C)C)cc2)cc1Nc1nc(-c2nccc(N)n2)cs1	A/I

// moving on: another record for ENZYMATIC ASSAY (Activation/Inhibition)
Query :: Look up ENZYMATIC ASSAY (Activation/Inhibition) for this compound: Cc1ccc(OCc2ccc(CN3CCN(C)CC3)cc2)cc1Nc1nc(-c2nccc(N)n2)cs1
Result :: A/I
